Assay system: NLRP3 inflammasome (Homo sapiens)
Sequence (Q96P20 whole entry): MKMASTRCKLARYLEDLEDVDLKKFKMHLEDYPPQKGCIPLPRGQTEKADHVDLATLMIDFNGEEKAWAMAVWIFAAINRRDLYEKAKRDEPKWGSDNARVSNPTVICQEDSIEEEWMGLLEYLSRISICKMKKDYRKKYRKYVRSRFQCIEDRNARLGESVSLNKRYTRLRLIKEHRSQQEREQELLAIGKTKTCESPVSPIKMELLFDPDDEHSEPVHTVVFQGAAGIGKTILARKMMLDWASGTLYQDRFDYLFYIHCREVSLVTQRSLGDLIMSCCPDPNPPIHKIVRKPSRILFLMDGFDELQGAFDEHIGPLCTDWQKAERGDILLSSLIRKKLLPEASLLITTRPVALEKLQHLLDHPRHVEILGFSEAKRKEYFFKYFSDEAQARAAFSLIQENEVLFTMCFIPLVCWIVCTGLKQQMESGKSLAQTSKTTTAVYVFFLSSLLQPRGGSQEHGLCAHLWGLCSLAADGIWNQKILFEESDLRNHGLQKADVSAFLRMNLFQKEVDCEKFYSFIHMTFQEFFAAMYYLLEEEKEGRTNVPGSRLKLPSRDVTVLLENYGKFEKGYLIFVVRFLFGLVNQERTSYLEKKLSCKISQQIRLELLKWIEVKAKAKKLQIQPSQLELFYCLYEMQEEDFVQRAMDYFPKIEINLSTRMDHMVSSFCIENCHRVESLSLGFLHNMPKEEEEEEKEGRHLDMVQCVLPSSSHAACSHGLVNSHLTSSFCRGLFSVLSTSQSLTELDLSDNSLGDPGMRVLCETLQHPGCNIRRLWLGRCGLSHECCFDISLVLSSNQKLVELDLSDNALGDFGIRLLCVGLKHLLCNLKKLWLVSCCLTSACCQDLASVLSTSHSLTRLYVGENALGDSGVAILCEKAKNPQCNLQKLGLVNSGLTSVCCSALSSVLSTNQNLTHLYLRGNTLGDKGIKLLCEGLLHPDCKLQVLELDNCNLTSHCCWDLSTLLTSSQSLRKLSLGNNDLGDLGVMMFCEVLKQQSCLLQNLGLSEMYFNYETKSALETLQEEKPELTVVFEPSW
Experimental details: IL-1β assay in IFN-γ-differentiated, LPS-primed, ATP-activated THP-1 cells (ELISA)
Assay type: cell-based
Details: 50 ng/mL LPS priming, 2.5 mM ATP activation, 2 hours
Property: pIC50
Give bare numbers, as −log10 of the molar value.

| Molecule | pIC50 |
| --- | --- |
| Oc1cccc(Nc2nnc(-c3cccc(C4CC4)c3)c3ccccc23)c1 [Example 10] | 6.36 |
| CN1C[C@H](F)C[C@@H](Nc2nnc(-c3ccc(Cl)cc3F)c3cnccc23)C1 [Example 183] | 6.23 |
| Clc1ccc(-c2nnc(NC3CCCN(C4CCC4)C3)c3ccccc23)cc1 (stereo not shown) [Example 145] | 6.88 |

Next item in the queue.
Per the reported NLRP3 inflammasome (Homo sapiens) data, CN1CCCC(Nc2nnc(-c3ccccc3Cl)c3ccccc23)C1 (stereo not shown) [Example 14] has pIC50 of 5.53
